Recorded Kd by entry
biological target: fYF, fluorescently labelled H14 foldamer YF; test: fluorescence polarisation; direct FP: S100 protein diluted in 50 nM labeled foldamer, 20 mM HEPES pH 7.5, 150 mM NaCl, 1 mM CaCl2, 0.5 mM TCEP, 0.01% Tween20; quadratic fit (ProFit); detection threshold Kd 1 mM

Use these answered entries as a reference point.
S100Z (natural protein) MPTQLEMAMDTMIRIFHRYSGKERKRFKLSKGELKLLLQRELTEFLSCQKETQLVDKIVQDLDANKDNEVDFNEFVVMVAALTVACNDYFVEQLKKKGK ... > 1000 µM
S100A3 (natural protein) MARPLEQAVAAIVCTFQEYAGRCGDKYKLCQAELKELLQKELATWTPTEFRECDYNKFMSVLDTNKDCEVDFVEYVRSLACLCLYCHEYFKDCPSEPPCSQ ... > 1000 µM
S100A12 (natural protein) MTKLEEHLEGIVNIFHQYSVRKGHFDTLSKGELKQLLTKELANTIKNIKDKAVIDEIFQGLDANQDEQVDFQEFISLVAIALKAAHYHTHKE ... > 1000 µM

Lab note: next binder to report on.
Bench note: what Kd did S100A5 (natural protein) METPLEKALTTMVTTFHKYSGREGSKLTLSRKELKELIKKELCLGEMKESSIDDLMKSLDKNSDQEIDFKEYSVFLTMLCMAYNDFFLEDNK show?
32 µM
